Collected EC50 values appear next to each entry.
- Test system: virus strain F (R13025)
- assay.procedure: microbe, parasite or virus in culture
- Format: cell-based, HIV
- conditions.used: Human immunodeficiency virus 1, MT4, read-out: HIV-AVE-MT4-MTT-R13025-2-002 pEC50, virus strain F (R13025), MT4 cells, MTT (converted)
outcome.measure: EC50 (nM)

INSERT INTO results (molecule_smiles, outcome_measure, units_text, recorded_result) VALUES
  ('CC(C)CN(C[C@@H](O)[C@H](Cc1ccccc1)NC(=O)OCc1cncs1)S(=O)(=O)c1ccc2nc(NC(=O)c3ccoc3)sc2c1', 'EC50', 'nM', 33.9),
  ('CC(C)CN(C[C@@H](O)[C@H](Cc1ccccc1)NC(=O)OCc1cncs1)S(=O)(=O)c1ccc2nc(NC(=O)c3cccnc3)sc2c1', 'EC50', 'nM', 49),
  ('Cc1cccc(C)c1OCC(=O)Nc1nc2ccc(S(=O)(=O)N(CC(C)C)C[C@@H](O)[C@H](Cc3ccccc3)NC(=O)COc3c(C)cccc3C)cc2s1', 'EC50', 'nM', 39.8);
